measurement-target: Cbl-b (Homo sapiens (Human))
protocol-description: Cbl-b LCK Ub TR-FRET assay (Cbl-b Lck HTRF)
Assay type: biochemical
Structures can show the parent of a compound that is named as a salt.
Exercise: for every item that follows, state its recorded IC50.
Answers are plain numbers, in nM.

These solved cases illustrate the format of a correct answer.
{"columns": ["molecule", "recorded-number"],
 "data": [
  ["CNc1cc(C2(Cc3nncn3C)CCC2)cc(N2Cc3c(cc(CNC4(C)CCC4)cc3C(F)(F)F)C2=O)n1 [Compound 310, formate]", 10],
  ["COCC1(NCc2cc3c(c(C(F)(F)F)c2)CN(c2cccc(C4(Cc5nncn5C)CC(F)(F)C4)c2)C3=O)CC1 [Compound 367]", 30],
  ["C[C@@H]1COCCN1c1cc(C2(Cc3nncn3C)COC2)cc(N2Cc3c(cccc3C(F)(F)F)C2=O)n1 [Compound 490]", 3300],
  ["CCOc1cc(C2(Cc3nncn3C)COC2)cc(N2Cc3c(cc(CNC4(C)CCC4)cc3C(F)(F)F)C2=O)n1 [Compound 304]", 11],
  ["CC(C)[C@H]1CN(S(C)(=O)=O)CCN1Cc1cc2c(c(C(F)(F)F)c1)CN(c1cccc(C3([C@@H](F)c4nncn4C)COC3)c1)C2=O [Compound 195]", 53]
]}

Items follow; give IC50 for each.
1. Cn1cnnc1[C@H](F)C1(c2cccc(N3Cc4c(cc(CN)cc4C(F)(F)F)C3=O)c2)COC1 [Compound 68]
2. Cn1cnnc1[C@@H](F)C1(c2cccc(N3Cc4c(cc(CN5CCC6(CC6)C5)cc4C(F)(F)F)C3=O)c2)CC1 [Compound 28]

1. 79
2. 80

---

measurement-target: c-Cbl (Homo sapiens (Human), UniProt P22681)
Sequence (P22681 47-435): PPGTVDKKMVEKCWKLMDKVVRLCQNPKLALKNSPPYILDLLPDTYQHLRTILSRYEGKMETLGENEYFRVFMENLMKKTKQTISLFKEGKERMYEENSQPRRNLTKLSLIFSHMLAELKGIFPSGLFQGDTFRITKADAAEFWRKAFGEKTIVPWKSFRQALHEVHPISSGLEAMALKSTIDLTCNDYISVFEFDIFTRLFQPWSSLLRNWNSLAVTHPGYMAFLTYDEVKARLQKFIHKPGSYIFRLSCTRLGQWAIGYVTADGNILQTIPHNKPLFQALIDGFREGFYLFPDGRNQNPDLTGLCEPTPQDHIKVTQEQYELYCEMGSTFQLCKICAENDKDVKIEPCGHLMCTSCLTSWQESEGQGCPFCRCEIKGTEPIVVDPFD
protocol-description: C-Cbl LCK Ub TR-FRET assay (c-cbl Lck HTRF)
Assay type: biochemical
Structures can show the parent of a compound that is named as a salt.
Kindly state pIC50 for each of the entries shown.
One number for each entry, as −log10 of the molar value.

Recorded pIC50, per entry:
{"columns": ["compound", "pIC50"],
 "data": [
  ["CC(C)[C@H]1CN(C)CCN1Cc1cc2c(c(C(F)(F)F)c1)CN(c1cc(C3(Cc4nncn4C)CCC3)cc(C#N)n1)C2=O", 8.27],
  ["CCNC(=O)CNc1cc(C2(Cc3nncn3C)CCC2)cc(N2Cc3c(cc(CNC4(C)CCC4)cc3C(F)(F)F)C2=O)n1 [Compound 307, formate]", 6.51]
]}

Short answer please: pIC50, c-Cbl (Homo sapiens (Human), UniProt P22681), entry `CCCNCc1cc2c(c(C(F)(F)F)c1)CN(c1cccc(C3([C@@H](F)c4nncn4C)CC(F)(F)C3)c1)C2=O`
7.48

---

measurement-target: c-Cbl (Homo sapiens (Human), UniProt P22681)
protocol-description: C-Cbl LCK Ub TR-FRET assay (c-cbl Lck HTRF)
Type: biochemical
settings: C-cbl Lck HTRF IC50 relative to Cbl-b Lck HTRF IC50
recorded-endpoint: (fold-selectivity)

Reported (fold-selectivity), compound Cn1cnnc1CC(F)c1cccc(N2Cc3c(cccc3C(F)(F)F)C2=O)c1 (racemic) [Compound 14] : ____
2.0x

---

measurement-target: Cbl-b (Homo sapiens (Human), UniProt Q13191)
Sequence (Q13191 40-426): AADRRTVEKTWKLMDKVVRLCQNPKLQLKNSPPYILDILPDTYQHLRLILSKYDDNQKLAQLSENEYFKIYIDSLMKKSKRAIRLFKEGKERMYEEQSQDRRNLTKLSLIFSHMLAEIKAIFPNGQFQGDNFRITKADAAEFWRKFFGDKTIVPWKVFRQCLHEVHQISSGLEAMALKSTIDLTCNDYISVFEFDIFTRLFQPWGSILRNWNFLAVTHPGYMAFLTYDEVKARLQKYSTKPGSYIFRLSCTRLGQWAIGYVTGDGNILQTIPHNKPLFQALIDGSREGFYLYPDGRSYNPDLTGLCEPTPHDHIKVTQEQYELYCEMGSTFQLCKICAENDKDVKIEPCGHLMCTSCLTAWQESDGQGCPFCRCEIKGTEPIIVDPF
protocol-description: Cbl-b LCK Ub TR-FRET assay (Cbl-b Lck HTRF)
Type: biochemical
Where a name gives a salt, the structure may show the parent alone.
recorded-endpoint: pIC50
Numbers only, as −log10 of the molar value.

Guide cases for pIC50, answers given:
{"columns": ["compound", "measurement-target", "recorded-number"],
 "data": [
  ["Cn1cnnc1[C@@H](F)C1(c2cccc(N3Cc4c(cc(CN5CC6CC6C5)cc4C(F)(F)F)C3=O)c2)COC1 (stereo partly drawn)", "Cbl-b (Homo sapiens (Human), UniProt Q13191)", 6.74],
  ["CC[C@@H](C)Nc1cc(C2(Cc3nncn3C)COC2)cc(N2Cc3c(cccc3C(F)(F)F)C2=O)n1", "Cbl-b (Homo sapiens (Human), UniProt Q13191)", 6.68]
]}

Now look at this one.
Look at this compound and give its reported pIC50. Cn1cnnc1[C@H](F)C1(c2cccc(N3Cc4c(cc(CNC5CCC5)cc4C(F)(F)F)C3=O)c2)COC1 [Compound 227, formate]
7.80

Hey, just so you know, these numbers are from patent US20250230147A1.
